Each entry below carries its reported % Substrate Cleaved in 3 hours.
System: minus strand HCV RNA
Assay type: biochemical, Hepatitis C virus
details: minus strand (−) HCV site, 50 mM Tris-Cl, pH 8.0, 40 mM Mg2+ at 37°, trace substrate, enzymatic nucleic acid concentration of 500 nM or greater
[2NH2-N] = 2'-deoxy-2'-amino ribonucleotide (N: the base); [invAb] = 3' inverted deoxyabasic cap; m = 2'-O-methyl; r = 2'-OH (RNA)
Express your answer in %, writing the number without its unit.

# count of solved cases: 3
substance	unit_text	numeric_result
22756 (UGGAAGAGCCGAAAGGCGAGUGAGGUCUGGCGUGA; 2'-O-methyl at 1, 2, 3, 4, 5, 6, 7, 8, 9, 10, 11, 12, 13, 14, 15, 16, [2NH2-N] at 17, 27, [invAb] at 3' end, other sugars and backbone not given here) [compound 22756]	%	73.47
22727 (GGACGAGUGAUGGCAUGCACUAUGCGCGACUUUGU; sugars from the 5' end mmmmmmmmrrrmmmmmrmmmmmmmmmrmmmmmmmm, [invAb] at 3' end, backbone not given here) [compound 22727]	%	67.20
22977 (AAGGAGAGGCTAGCTACAACGAGAAGGCGN; 3' inverted abasic cap (B); Description of Artificial Sequence: Nucleic Acid; misc_feature (30)..(30): n stands for inverted deoxyabasic derivative; misc_feature (1)..(7): 2'-O-Methyl; misc_feature (23)..(29): 2'-O-Methyl) [compound 22977]	%	71.28

Shifting focus to the substance that follows.
Record summary for 22725 (GGAAAAGUGAUGGCAUGCACUAUGCGCGAACAGGA; sugars from the 5' end mmmmmmmmrrrmmmmmrmmmmmmmmmrmmmmmmmm, [invAb] at 3' end, backbone not given here) [compound 22725] : reported % Substrate Cleaved in 3 hours = 94.66

###

Readings of % Substrate Cleaved in 3 hours for the listed substances
Tested on: plus strand HCV RNA
Type: biochemical, Hepatitis C virus
details: plus strand (+) HCV site, 50 mM Tris-Cl, pH 8.0, 40 mM Mg2+ at 37°, trace substrate, enzymatic nucleic acid concentration of 500 nM or greater
[invAb] = 3' inverted deoxyabasic cap; [amino-N] = 2'-deoxy-2'-amino nucleotide (N: the base); [I] = hypoxanthine (inosine); m = 2'-O-methyl; r = 2'-OH (RNA)
State the value, then name its unit.

Before answering, review these 6 worked examples.
substance	readout_name	result
22944 (UCCUGUUCUGAUGAGGCCGUUAGGCCGAAAUGUGCC; 2'-O-methyl at 1, 2, 3, 4, 5, 6, 7, 15, 16, 17, 18, 19, 20, 21, 22, 23, 24, 25, 26, 31, 32, 33, 34, 35, 36, [invAb] at 3' end, other sugars and backbone not given here) [compound 22944]	% Substrate Cleaved in 3 hours	90.33%
22777 (CGAGGAACUGAUGAGGCCGUUAGGCCGAANAGAGGA; ribozyme; 2'-O-methyl at 1, 2, 3, 4, 5, 6, 7, 15, 16, 17, 18, 19, 20, 21, 22, 23, 24, 25, 26, 31, 32, 33, 34, 35, 36, [I] at 30, [invAb] at 3' end, other sugars and backbone not given here) [compound 22777]	% Substrate Cleaved in 3 hours	90.12%
22719 (UGGAAGAUGAUGGCAUGCACUAUGCGCGACUGAGA; sugars from the 5' end mmmmmmmmrrrmmmmmrmmmmmmmmmrmmmmmmmm, [invAb] at 3' end, backbone not given here) [compound 22719]	% Substrate Cleaved in 3 hours	69.88%
22778 (UGAUGGACUGAUGAGGCCGUUAGGCCGAANCUGUGA; ribozyme; 2'-O-methyl at 1, 2, 3, 4, 5, 6, 7, 15, 16, 17, 18, 19, 20, 21, 22, 23, 24, 25, 26, 31, 32, 33, 34, 35, 36, [I] at 30, [invAb] at 3' end, other sugars and backbone not given here) [compound 22778]	% Substrate Cleaved in 3 hours	83.77%
22775 (AAGAGGACUGAUGAGGCCGUUAGGCCGAANAUAGAG; ribozyme; 2'-O-methyl at 1, 2, 3, 4, 5, 6, 7, 15, 16, 17, 18, 19, 20, 21, 22, 23, 24, 25, 26, 31, 32, 33, 34, 35, 36, [I] at 30, [invAb] at 3' end, other sugars and backbone not given here) [compound 22775]	% Substrate Cleaved in 3 hours	87.74%
22748 (AGGUGAAGCCGAAAGGCGAGUGAGGUCUAGCUGAG; 2'-O-methyl at 1, 2, 3, 4, 5, 6, 7, 8, 9, 10, 11, 12, 13, 14, 15, 16, [amino-N] at 17, 27, [invAb] at 3' end, other sugars and backbone not given here) [compound 22748]	% Substrate Cleaved in 3 hours	80.28%

Next substance, % Substrate Cleaved in 3 hours to be filled in.
Measured % Substrate Cleaved in 3 hours, 22751 (GAGUUGAGCCGAAAGGCGAGUGAGGUCUUGGAGUG; 2'-O-methyl at 1, 2, 3, 4, 5, 6, 7, 8, 9, 10, 11, 12, 13, 14, 15, 16, [amino-N] at 17, 27, [invAb] at 3' end, other sugars and backbone not given here) [compound 22751] : 14.85%
